Attribution: ChEMBL document CHEMBL3714716

Biological target: Relaxin receptor 1 (Homo sapiens)
Experiment: Agonist activity at RXFP1 receptor (unknown origin) expressed in HEK293 cells assessed as stimulation of cAMP production incubated for 30 mins by TR-FRET based HTRF assay relative to forskolin
Assay type: functional, cell-based
The source made the active and inactive calls. No cut-off for these calls is given here.
assay metric: %max

# structure as smiles, assay metric, reported
measured = [
    ("O=C(Nc1ccccc1C(=O)Nc1cccc(C(F)(F)F)c1)c1cccc(Cl)c1", "%max", "96%"),
    ("O=C(Nc1cccc([N+](=O)[O-])c1)c1ccccc1NC(=O)C1CCCCC1", "%max", "93%"),
    ("CN(C)CCCOc1ccccc1C(=O)Nc1cccc(C(F)(F)F)c1", "%max", "inactive"),
    ("O=C(Nc1ccc2c(c1)CCC2)c1ccccc1NC(=O)C1CCCCC1", "%max", "46%"),
    ("O=C(NCc1cccs1)c1ccccc1NC(=O)C1CCCCC1", "%max", "40%"),
    ("O=C(Nc1cccc(C(F)(F)F)c1)c1ccccc1NC(=O)C12CC3CC(CC(C3)C1)C2", "%max", "87%"),
    ("O=C(Nc1ccccc1)c1ccccc1NC(=O)C1CCCCC1", "%max", "57%"),
    ("CN(C)CCOc1ccccc1C(=O)Nc1cccc(C(F)(F)F)c1", "%max", "inactive"),
    ("COc1ccccc1C(=O)Nc1ccccc1C(=O)Nc1cccc(SC)c1", "%max", "94%"),
    ("CCOc1ccccc1-c1nc2c(C(=O)Nc3cccc(S(=O)(=O)C(F)(F)F)c3)cccc2[nH]1", "%max", "inactive"),
]

Give measured %max for O=C(Nc1cccc(-c2cccc(C(F)(F)F)c2)c1)c1ccccc1NC(=O)C1CCCCC1 (Relaxin receptor 1 (Homo sapiens)). inactive

Look up and report %max, with Relaxin receptor 1 (Homo sapiens) as system, for O=C(Nc1cccc(C(F)(F)F)c1)c1ccccc1NC(=O)c1ccccc1[N+](=O)[O-] 30%

State recorded %max with Relaxin receptor 1 (Homo sapiens), entry CS(=O)(=O)c1cccc(NC(=O)c2ccccc2NC(=O)C2CCCCC2)c1 , no comment. 34%
